Source listed as ChEMBL document CHEMBL4033707.

measurement_description: Clearance in Han Wistar rat at 4 umol/kg, iv or 10 umol/kg, po
Assay type: ADME, organism-based
details: in vivo
quantity_kind: clearance (mL/min/kg)
// return numeric value only (unit: mL/min/kg, not printed)

Data request: Name the recorded clearance for CNC(=O)c1nc(-c2nc(-c3cnn4ccccc34)c(C)nc2N)n(C)n1 .
Data returned: 27

Data request: Name the recorded clearance for CNC(=O)c1nc(-c2nc(-c3cnc4ccccn34)c(C)nc2N)n(C)n1 .
Data returned: 11

* * *

system: Phosphatidylinositol 4-kinase beta (Homo sapiens)
Sequence (Q9UBF8 whole entry, the tested form may be a part): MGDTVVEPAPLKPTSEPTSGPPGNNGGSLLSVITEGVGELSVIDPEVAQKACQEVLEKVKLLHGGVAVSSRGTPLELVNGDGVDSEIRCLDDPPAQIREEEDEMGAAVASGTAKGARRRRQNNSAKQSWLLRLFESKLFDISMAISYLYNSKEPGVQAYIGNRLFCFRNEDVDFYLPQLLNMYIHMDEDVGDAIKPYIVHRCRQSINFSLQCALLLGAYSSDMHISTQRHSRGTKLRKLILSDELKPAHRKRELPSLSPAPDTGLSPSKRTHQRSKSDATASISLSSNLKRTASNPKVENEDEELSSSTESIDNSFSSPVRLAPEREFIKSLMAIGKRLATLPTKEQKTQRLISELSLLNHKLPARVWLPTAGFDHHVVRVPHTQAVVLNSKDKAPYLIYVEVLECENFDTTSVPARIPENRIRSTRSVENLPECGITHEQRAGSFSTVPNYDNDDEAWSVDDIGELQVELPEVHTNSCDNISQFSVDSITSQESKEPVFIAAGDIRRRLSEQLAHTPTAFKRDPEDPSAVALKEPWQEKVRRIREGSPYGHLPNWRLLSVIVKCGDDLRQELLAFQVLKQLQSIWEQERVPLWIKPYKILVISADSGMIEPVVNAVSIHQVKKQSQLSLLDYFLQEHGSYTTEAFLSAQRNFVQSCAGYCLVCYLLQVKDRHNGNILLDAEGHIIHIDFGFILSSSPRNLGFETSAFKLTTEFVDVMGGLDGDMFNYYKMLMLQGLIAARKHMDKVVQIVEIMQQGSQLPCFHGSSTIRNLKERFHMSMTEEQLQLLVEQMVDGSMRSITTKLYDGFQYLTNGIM
measurement_description: Inhibition of human PI4KB (1 to 801 residues) by ADP Glo HTS assay
quantity_kind: pIC50
Please express pIC50 as -log10 of the molar concentration.

Data request: Name the recorded pIC50 for CNC(=O)c1nc(-c2nc(-c3cnc4ccccn34)c(C)nc2N)n(C)n1 .
Data returned: 5.55
